// provenance: PubChem BioAssay (EPA / NIEHS)

# ASSAY PROTOCOL: CCTE_Shafer_MEA_acute_network_burst_percentage: CCTE's Neural Acute Assay for Percentage of Network Bursts, Shafer Lab (AID 2284022);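 further: curves fitted for loss so actives lower network burst percentage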
The source made the active and inactive calls. How the source made its calls: active means hit-call score of the fitted dose curve at least 0.9, where 1 is the maximum; inactive means score below 0.9.
Answer with one of the outcomes active, inactive

compound=CCN(CC)C(=O)c1cc(S(=O)(=O)Cc2ccccc2)c(N2CCC(c3ccccc3)CC2)cc1N(CC)CCN(C)C assigned_class=active
compound=CCN(Cc1cccc(S(=O)(=O)O)c1)c1ccc(C(=C2C=CC(=[N+](CC)Cc3cccc(S(=O)(=O)O)c3)C=C2)c2ccccc2S(=O)(=O)[O-])cc1 assigned_class=inactive
compound=CC[C@@H]1C[C@H](N(Cc2cc(C(F)(F)F)cc(C(F)(F)F)c2)C(C)=O)c2cc(C(F)(F)F)ccc2N1C(=O)OC(C)C assigned_class=inactive

Continue with the compound presented below.
Which outcome did this test record for the compound OC12N=C(c3ccccc3)SC1Cc1cc(Cl)ccc12 (centres undefined) ?
inactive

====

# ASSAY PROTOCOL: CCTE_Shafer_MEA_acute_per_network_burst_spike_number_std: CCTE's Neural Acute Assay for Standard Deviation of Number of Spikes in a Network Burst, Shafer Lab (AID 2284020);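 further: fitted for decrease in spike-number SD versus DMSO so actives lower it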
Calls of active or inactive are those of the source. The calls were made as follows: active = hit-call score of the fitted dose curve at least 0.9, where 1 is the maximum; inactive = score below 0.9.
Answer with one of the outcomes active, inactive

Use the examples below as a reference point.
structure_smiles_string=CC(C)(C)c1cc(/C=C2\SC(N)=NC2=O)cc(C(C)(C)C)c1O assigned_class=inactive
structure_smiles_string=CN(C)C(=O)C1(N2CCCCC2)CCN(CC[C@@]2(c3ccc(Cl)c(Cl)c3)CN(C(=O)c3ccccc3)CCO2)CC1 assigned_class=active
structure_smiles_string=Cc1cc2c(cc1C(F)(F)F)N(C(=O)Nc1ccc(Oc3cccnc3C)nc1)CC2 assigned_class=inactive
structure_smiles_string=C[C@]12CC[C@@H]3c4ccc(O)cc4CC[C@H]3[C@@H]1CC[C@H]2O assigned_class=inactive

Continue with the compound presented below.
Which outcome did this test record for the compound "O=C1O[C@H]([C@@H](O)CO)C(O)=C1O" ?
inactive

====

# Read-out: Alpha-fetoprotein (AFP) gene, AFP (gene 174)
# ASSAY PROTOCOL: LTEA_HepaRG_AFP: Life Technologies and Expression Analysis (LTEA) Assay for Alpha-fetoprotein (AFP) gene using HepaRG (AID 2283472)
# PARTICULARS: mRNA level, 48 h; actives raise or lower the signal
Activity calls are given as the source filed them. How the source made its calls: active means hit-call score of the fitted dose curve at least 0.9, where 1 is the maximum; inactive means score below 0.9.
Answer with one of the outcomes TRUE for active, FALSE for inactive

Use the examples below as a reference point.
structure_smiles_string=CN1C(=O)CC[C@H]1c1cccnc1 assigned_class=FALSE
structure_smiles_string=Cc1cccc2ccccc12 assigned_class=FALSE

Which outcome did this test record for the compound "CCCCOC(=O)CC(CC(=O)OCCCC)(OC(C)=O)C(=O)OCCCC" ?
FALSE

Which outcome did this test record for the compound "Cc1ccc(C(C)C)cc1" ?
FALSE

====

# MEASUREMENT TARGET: Oxysterols receptor LXR-alpha (Homo sapiens)
# ASSAY PROTOCOL: ATG_LXRa_TRANS: Attagene TRANS-FACTORIAL HepG2 Assay for human Liver X Receptor alpha (LXRa) (AID 2282980)
# PARTICULARS: HepG2 Attagene TRANS reporter, LXRa transactivation
Results filed as inconclusive are left out. Active and inactive are the calls of the source. The calls were made as follows: active = hit-call score of the fitted dose curve at least 0.9, where 1 is the maximum; inconclusive = response in the unintended direction; inactive = score below 0.9.
ATTRIBUTE MEASURED: outcome

# count of solved cases: 5
structure_smiles_string=Oc1ccccc1 result=inactive
structure_smiles_string=CC[C@@H]1C[C@H](N(Cc2cc(C(F)(F)F)cc(C(F)(F)F)c2)C(C)=O)c2cc(C(F)(F)F)ccc2N1C(=O)OC(C)C result=inactive
structure_smiles_string=CCCCOC(=O)c1ccc(O)cc1 result=inactive
structure_smiles_string=O=C1CCC(C2CCCCC2)CC1 result=inactive
structure_smiles_string=CN(C)C(=O)C1(N2CCCCC2)CCN(CC[C@@]2(c3ccc(Cl)c(Cl)c3)CN(C(=O)c3ccccc3)CCO2)CC1 result=inactive

Could you tell me which outcome is on file for "CCCC(=O)OCCC(C)C" ?
inactive

Could you tell me which outcome is on file for "CC1(C)NC(=O)N(c2ccc([N+](=O)[O-])c(C(F)(F)F)c2)C1=O" ?
inactive

Could you tell me which outcome is on file for "CCCCCCCCCCCCO" ?
inactive

Could you tell me which outcome is on file for "CCN(CC)C(=O)c1cc(S(=O)(=O)Cc2ccccc2)c(N2CCC(c3ccccc3)CC2)cc1N(CC)CCN(C)C" ?
inactive

Could you tell me which outcome is on file for "c1ccc(C[n+]2cccc3ccccc32)cc1" ?
inactive

Could you tell me which outcome is on file for "CC/C(=C(/CC)c1ccc(O)cc1)c1ccc(O)cc1" ?
inactive

====

# Read-out: Interleukin-6 (IL6), IL6 (gene 3569)
# ASSAY PROTOCOL: BSK_CASM3C_IL6: BioMAP Diversity Plus: CASM3C Assay for Interleukin-6 (IL6) Biomarker Activity for (AID 2283040)
# PARTICULARS: primary human coronary artery smooth muscle cells; actives raise or lower the signal
Active and inactive are the calls of the source. How the source made its calls: active means hit-call score of the fitted dose curve at least 0.9, where 1 is the maximum; inactive means score below 0.9.
Answer with one of the outcomes t for active, f for inactive

molecule=O=C=NCCCCCCN=C=O assigned_class=f
molecule=O=CCCCC=O assigned_class=f
molecule="OC12N=C(c3ccccc3)SC1Cc1cc(Cl)ccc12 (centres undefined)" assigned_class=f

Continue with the molecule presented below.
Which outcome did this test record for the molecule "O=C(Nc1ccc(Cl)cc1)Nc1ccc(Cl)c(Cl)c1" ?
t

====

# Read-out: Interferon-gamma inducible Protein 10 (IP10), CXCL10 (gene 3627)
# ASSAY PROTOCOL: BSK_hDFCGF_IP10: BioMAP Diversity Plus: hDFCGF Assay for Interferon-gamma inducible Protein 10 (IP10) Biomarker Activity (AID 2283053)
# PARTICULARS: primary human foreskin fibroblasts; actives raise or lower the signal
Active and inactive are the calls of the source. The calls were made as follows: active = hit-call score of the fitted dose curve at least 0.9, where 1 is the maximum; inactive = score below 0.9.
Answer with one of the outcomes active, inactive

Use the examples below as a reference point.
compound=CCCCCCCCOc1ccc(C(=O)c2ccccc2)c(O)c1 assigned_class=inactive
compound="COCC(C)OCC(C)OCC(C)O (stereo not given)" assigned_class=inactive
compound=CN(C)C(=O)C1(N2CCCCC2)CCN(CC[C@@]2(c3ccc(Cl)c(Cl)c3)CN(C(=O)c3ccccc3)CCO2)CC1 assigned_class=active
compound=CC[C@@H]1C[C@H](N(Cc2cc(C(F)(F)F)cc(C(F)(F)F)c2)C(C)=O)c2cc(C(F)(F)F)ccc2N1C(=O)OC(C)C assigned_class=active

Which outcome did this test record for the compound "Cc1oc2c(NC(=O)c3c(Cl)cccc3Cl)cccc2c1C(C)(C)O" ?
inactive

Which outcome did this test record for the compound "Cc1ncc(CO)c(CO)c1O" ?
inactive

Which outcome did this test record for the compound "CN(C)c1ccc(C(=C2C=CC(=[N+](C)C)C=C2)c2ccc(N(C)C)cc2)cc1" ?
active

Which outcome did this test record for the compound "O=C(O)Cc1cc(I)c(Oc2ccc(O)c(I)c2)c(I)c1" ?
inactive

Which outcome did this test record for the compound "CC(C)(O)c1ccc(CNC(=O)c2cccnc2Oc2ccc3nonc3c2)cc1" ?
inactive

====

# ASSAY PROTOCOL: ATG_Oct_MLP_CIS: Attagene CIS-FACTORIAL HepG2 Assay for human Octamer-Binding Transcription Factor (Oct) (AID 2282993)
# PARTICULARS: HepG2 Attagene cis-factorial Oct reporter, mRNA; actives raise or lower the signal
Calls of active or inactive are those of the source. The calls were made as follows: active = hit-call score of the fitted dose curve at least 0.9, where 1 is the maximum; inactive = score below 0.9.
Answer with one of the outcomes yes for active, no for inactive

Use the examples below as a reference point.
compound=Cc1cn([C@H]2C[C@H](N=[N+]=[N-])[C@@H](CO)O2)c(=O)[nH]c1=O assigned_class=no
compound=CCCCCCCCCCCO assigned_class=no
compound=O=C1CCC(C2CCCCC2)CC1 assigned_class=no

Which outcome did this test record for the compound "c1ccc(C[n+]2cccc3ccccc32)cc1" ?
no

Which outcome did this test record for the compound "c1ccc2n[nH]nc2c1" ?
no

Which outcome did this test record for the compound "O=CCCCC=O" ?
no

Which outcome did this test record for the compound "Cc1ncc(CO)c(CO)c1O" ?
no

Which outcome did this test record for the compound "O=C(Nc1ccc(Cl)cc1)Nc1ccc(Cl)c(Cl)c1" ?
yes

====

# ASSAY PROTOCOL: BSK_hDFCGF_SRB: Viability Assessment in the BioMAP Diversity Plus: hDFCGF Assay (AID 2283061);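 further: cells exposed to compound for 24 h before the read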
# PARTICULARS: primary human foreskin fibroblasts
The source made the active and inactive calls. How the source made its calls: active means hit-call score of the fitted dose curve at least 0.9, where 1 is the maximum; inactive means score below 0.9.
Answer with one of the outcomes active, inactive

structure_smiles_string=C[C@]12CC[C@@H]3c4ccc(O)cc4CC[C@H]3[C@@H]1CC[C@H]2O assigned_class=inactive
structure_smiles_string=CCCCCCCCOC(=O)c1cc(O)c(O)c(O)c1 assigned_class=active
structure_smiles_string=c1ccc(C[n+]2cccc3ccccc32)cc1 assigned_class=inactive
structure_smiles_string=c1ccc2ccccc2c1 assigned_class=inactive
structure_smiles_string=CN1C(=O)CC[C@H]1c1cccnc1 assigned_class=inactive

Which outcome did this test record for the compound "CCCCOC(=O)CC(CC(=O)OCCCC)(OC(C)=O)C(=O)OCCCC" ?
inactive

Which outcome did this test record for the compound "CC[C@@H]1C[C@H](N(Cc2cc(C(F)(F)F)cc(C(F)(F)F)c2)C(C)=O)c2cc(C(F)(F)F)ccc2N1C(=O)OC(C)C" ?
inactive

Which outcome did this test record for the compound "O=C1c2ccccc2C(=O)N1CCc1noc(-c2ccc(CN3CCCCCC3)s2)n1" ?
inactive
